# System: Mus musculus
# assay.remarks: In vivo inhibition of PHD2 in ICR mouse assessed as increase in serum EPO production at 10 mg/kg, po and measured after 4 hrs by ELISA
# Assay type: functional, organism-based
The source made the active and inactive calls. The calls are words filed in the database; no cut-off is given here.
parameter.measured: inhibition

Below, each entry is followed by its recorded inhibition result.
O=C(O)CNC(=O)c1cnc(NS(=O)(=O)c2ccc(-c3ccccc3)cc2)nc1O; Active
O=C(O)CNC(=O)c1cnc(NS(=O)(=O)c2cccc(Cl)c2)nc1O; Active
O=C(O)CNC(=O)c1cnc(NS(=O)(=O)c2ccccc2)nc1O; Active
O=C(O)CNC(=O)c1cnc(NS(=O)(=O)c2ccc(C(F)(F)F)cc2)nc1O; Active

Which inhibition reading was recorded for the compound COc1ccc(S(=O)(=O)Nc2ncc(C(=O)NCC(=O)O)c(O)n2)cc1 ?
Active

And then Cc1nc(C(=O)NCC(=O)O)c(O)c2ccc(Oc3ccccc3)cc12 , what is it?
Active

And then O=C(O)CNC(=O)c1cnc(NS(=O)(=O)Cc2ccccc2)nc1O , what is it?
Active
